target: T1, human CLDN18.2 (human); assay: flow cytometry, phage supernatant; hCLDN18.2 cells against hCLDN18.1 cells
T1 construct: also called hCLDN18.2; huCLDN18.2
Quick reference for ratio of mean fluorescence intensities on hCLDN18.2 and hCLDN18.1 cells among some binders
observable: ratio of mean fluorescence intensities on hCLDN18.2 and hCLDN18.1 cells

# binder, valueMeasured
records = [
    ("A18-1-65 (VHH) VHH: EVQLQESGGGLVQPGGSLRLSCAASGTIFNLPVMSWYRQAPGKQRELVAGISTGGTTNYGDSVKGRFTISRDNARNTVYLQMNSLKPEDTAVYYCNVLVVSGIGSHLEVWG", 73),
    ("A293-55 (VHH) VHH: QVQLVESGGGSVQPGGSLRLSCAASGSIFHIVVMGWYRQAPGKQRELVAGMSTGGTTNYGDSVKGRFTISRDNAKNTVYLQMNSLKPEDTAVYYCNVLVISGIGSHLEVWG", 117),
    ("A18-1-50 (VHH) VHH: EVQVQESGGGLVQPGGSLRLSCAASGNIFRIDTMGWYRQAPGKQRELVAGISRGGTTTYAHSVKERFTISRDNAKNTMYLQMNSLKSEDTAGYYCNAQAWDPGTFRYLEVWGQGTLVTVSA", 67),
    ("A18-1-48 (VHH) VHH: EVQLVESGGGLVQPGGSLRLSCAASGNIFRIDTMGWYRQAPGKQREFVAGISRGGSTNYAHSVKERFTISRDNAKNTMYLQMNSLKSEDTAGYYCNAQAWDPGTIRYLEVWGQGTLVTVSA", 103),
    ("A293-34 (VHH, also called candidate nanobody A293-34) VHH: QVQLQESGGGLVQPGGSLRLSCAASGTFFNIPVMGWYRQAPGKQRELVAGISTGGTTNYGDSVKGRFTISRDNAKNTVYLQMNSLKPEDTAVYYCNVLVISGIGSHLEVWG", 187),
    ("A18-1-42 (VHH, also called candidate nanobody A18-1-42) VHH: EVQVVESGGGLVQPGGSLRLSCAASGSILHIPVMSWYRQAPGKQRELVAGISTGGTTNYGDSVKGRFTISRDNAKNTVYLQMNSLKPEDTAAYYCNVLVVSGIGSHLEVWG", 392),
    ("A18-1-63 (VHH, also called candidate nanobody A18-1-63) VHH: QVQLQESGGGLVQPGGSLRLSCAASGSIFNIPVMGWYRQAPGKQRELVAGISTGGTTNYGDSVKGRFTISRDNAKNTVYLQMNSLKPEDTAVYYCNVLVVSGIGSTLEVWG", 2200),
    ("A18-1-62 (VHH) VHH: QVQLVESGGGLVQPGGSLRLSCAASGTIFNIPVMGWYRQAPGKQRELVAGISTGGTTNYGDSVKGRFTISRDNAKNTVYLQMNSLKPEDTAVYYCNVLVISGIGSHLEVWG", 126),
    ("A293-82 (VHH) VHH: EVQVVESGGGLVQPGGSLRLSCAASGNIFRIDTMVWYRQAPGKQRELVAGISRGGTTNYAHSVKGRFTISRDNAKNTMYLQMNSLKSEDTATYYCNAQAWDVGTIRYLEVWGQGTLVTVSA", 102),
    ("A18-1-44 (VHH) VHH: EVQLVESGGGLVQPGGSLRLSCAASGSIFNLPVMSWYRQAPGKQRELVAGISTGGTTNYGDSVKGRFTISRDNAKNTVYLQMNSLKPEDTAVYYCNVLVISGIGSHLEVWG", 104),
    ("A-2-3 (VHH) VHH: EVQLVESGGGLVQPGGSLRLSCAASGSIFNLPVMSWYRQAPGKQRELVAGISTGGTTNYGDSVKGRFTISRDNAKNTVYLQMNSLKPEDTAVYYCNVLVVSGIGSHLEVWG", 175),
    ("A18-1-75 (VHH) VHH: EVQLVESGGGLVQPGGSLRLSCAASGNIFRIDTMVWYRQAPGKQRELVAGISRGGTTNYAHSVKGRFTISRDNAKNTMYLQMNSLKSEDTATYYCNAQAWDVGTIRYLEVWGQGTLVTVSA", 99),
    ("A18-1-78 (VHH) VHH: EVQLQESGGGLVQPGGSLRLSCAASGNIFRIDTMGWYRQAPGKQREFVAGISRGGSTNYAHSVKERFTISRDNAKNTMYLQMNSLKSEDTAGYYCNAQAWDPGTIRYLEVWGQGTLVTVSA", 105),
    ("A-2-4 (VHH, also called candidate nanobody A-2-4) VHH: EVQVQESGGGLVQAGTSLRLSCAASGNIFRIDTMGWYRQAPGKQRELVAGISRGGTTTYAHSVKERFTISRDNAKNTMYLQMNSLKSEDTAGYYCNAQAWDPGTFRYLEVWGQGTLVTVSA", 137),
    ("A18-1-6 (VHH) VHH: EVQVQESGGGLVQPGGSLRLSCAASGSIFNIPVMSWYRQAPGKQRELVAGISTGGTTNYGDSVKGRFTISRDNAKTTVYLQMNSLKPEDTAVYYCNVLVISGIGSHLEVWG", 201),
]
